Target: UniProtKB P56373
Sequence (P56373 1-397): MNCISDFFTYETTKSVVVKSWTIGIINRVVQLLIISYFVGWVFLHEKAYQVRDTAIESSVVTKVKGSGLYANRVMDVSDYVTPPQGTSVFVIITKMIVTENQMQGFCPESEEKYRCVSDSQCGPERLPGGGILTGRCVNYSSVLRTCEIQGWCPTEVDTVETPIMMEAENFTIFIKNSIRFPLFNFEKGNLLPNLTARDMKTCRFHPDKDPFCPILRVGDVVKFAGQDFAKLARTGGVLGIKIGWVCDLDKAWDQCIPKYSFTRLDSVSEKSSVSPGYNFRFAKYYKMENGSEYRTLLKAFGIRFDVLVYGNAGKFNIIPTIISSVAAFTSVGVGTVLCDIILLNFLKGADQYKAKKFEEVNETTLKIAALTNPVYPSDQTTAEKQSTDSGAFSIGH
Assay: Calcium uptake assay (P2X antagonist assay, inhibition of agonist-induced calcium influx), P2X3
Settings: inhibition of agonist-induced calcium influx in cells expressing the receptor
QUANTITY NAME: IC50 (nM)

Before answering, review these 3 worked examples.
# COMPOUND, OUTPUT UNIT, IC50
records = [
    ("Cc1ccc(N2CCc3ncnc(N[C@H](CCO)c4ccc(C(F)(F)F)nc4)c3C2)c(C#N)c1 [Compound 64]", "nM", 23),
    ("COc1ccc(CNc2ncnc3c2CN(c2ccc(Cl)cc2C#N)CC3)cn1 [Compound 13]", "nM", 59),
    ("N#Cc1cc(Cl)ccc1N1CCc2ncnc(NCc3ccc(C(F)(F)F)nc3)c2C1 [Compound 4]", "nM", 37),
]

(a) N#Cc1cc(Cl)ccc1N1CCc2ncnc(N[C@H](CO)c3ccc(C(F)F)nc3)c2C1 [Compound 72]
(b) CSc1cc(CNc2ncnc3c2CN(c2ccc(C)cc2C#N)CC3)ccc1C [Compound 49]
Ask: Endpoint returns whichever of a and b has the numerically higher IC50. API: response body contains the label of the selected item.
Reply: b
(b: 474 nM, a: 16 nM)
